Where do the numbers come from? From the RNAGym collection of RNA variant scans (doi:10.7554/elife.80360).

B1: CPEB3 Ribozyme (parent)
chain: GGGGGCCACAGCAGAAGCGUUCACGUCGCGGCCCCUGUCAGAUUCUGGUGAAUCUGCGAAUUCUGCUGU

Variants of: B1
Assay: self-cleavage, relative activity (ratio to wild type); higher = more cleavage; co-transcriptional
MEASURED PARAMETER: self-cleavage
Returns: the value as a bare number; no unit string appended.

Illustrative cases are given below, each with its answer.
INPUT SEQUENCE	self-cleavage
GGGGGCCACAGCAGAAGCGUUCACGUCGCGGCCCCUGUAAGAUCCUGGUGAAUCUGCGAAUUCUGCUGU [C39A U44C]	0.432
GGGGGACACAGCAGAAGUGUUCACGUCGCGGCCCCUGUCAGAUUCUGGUGAAUCUGCGAAUUCUGCUGU [C6A C18U]	0.146
GGGGGCCACAGCAGAACCGUUCACAUCGCGGCCCCUGUCAGAUUCUGGUGAAUCUGCGAAUUCUGCUGU [G17C G25A]	0.15
GGGGGCCACAGCAGAACCGUUCACGUCGCGGCCCCUGUCAGAUUCUGGUGAUUCUGCGAAUUCUGCUGU [G17C A52U]	0.133
GUGGGCCACAGCAGAAGCGUUCACGUCGCGGCCCCUGUCAGAUUCUGGUGAAUCUGCGUAUUCUGCUGU [G2U A59U]	0.0606
GGGGGCCACAGCGGAAGCGUUCACGUCGCGGCCCGUGUCAGAUUCUGGUGAAUCUGCGAAUUCUGCUGU [A13G C35G]	0.446

With those in mind, consider the next variant.
The recorded self-cleavage for GGGGGCGACAGCAGAAGCGUUCCCGUCGCGGCCCCUGUCAGAUUCUGGUGAAUCUGCGAAUUCUGCUGU [C7G A23C] is 0.319
